System: KRAS-mutant PDC complex spheroid viability
METHOD NOTES: Anticancer human tumor 186277-243-T-J2-PDC patient-derived colon adenocarcinoma cell line growth inhibition [KRAS2]
EXPERIMENTAL CONTEXT: curve of first compound; second compound 3.16 µM
pIC50: −log10 of the molar value.
MEASURE: pIC50

{"MOLECULE": "O=C(c1cc(Cc2n[nH]c(=O)c3ccccc23)ccc1F)N1CCN(C(=O)C2CC2)CC1 + COc1cc2nc(C)nc(NC(C)c3cc(N)cc(C(F)(F)F)c3)c2cc1OC1CCOC1", "MEASUREMENT": 5.35}
{"MOLECULE": "CC(C)n1nc(-c2ccc3oc(N)nc3c2)c2c(N)ncnc21 + CNCc1ccccc1-c1csc(C(C)Nc2nc(C)nc3cc(OC)c(OC)cc23)c1", "MEASUREMENT": 8.93}
{"MOLECULE": "CC(=O)Nc1cccc(-n2c(=O)n(C3CC3)c(=O)c3c(Nc4ccc(I)cc4F)n(C)c(=O)c(C)c32)c1 + COc1cc2nc(C)nc(NC(C)c3cc(N)cc(C(F)(F)F)c3)c2cc1OC1CCOC1", "MEASUREMENT": 9.65}

----------
Tested on: KRAS-mutant PDC complex spheroid viability
METHOD NOTES: Anticancer human tumor 186277-243-T-J2-PDC cell line growth inhibition [KRAS2]
EXPERIMENTAL CONTEXT: curve of first compound; second compound 3.16 µM

{"MOLECULE": "COc1cc(Nc2ncc3c(n2)-c2ccc(Cl)cc2C(c2c(F)cccc2OC)=NC3)ccc1C(=O)O + CNCc1ccccc1-c1csc(C(C)Nc2nc(C)nc3cc(OC)c(OC)cc23)c1", "RELATION OPERATOR": "<", "IC50 (nM)": 31.6}
{"MOLECULE": "CCNC(=O)CC1N=C(c2ccc(Cl)cc2)c2cc(OC)ccc2-n2c(C)nnc21 (stereo not given) + C=CC(=O)N1CCN(c2nc(OCC3CCCN3C)nc3c2CCN(c2cccc4cccc(C)c24)C3)CC1CC#N", "RELATION OPERATOR": "<", "IC50 (nM)": 31.6}
{"MOLECULE": "COc1cc2nccc(Oc3ccc(NC(=O)C4(C(=O)Nc5ccc(F)cc5)CC4)cc3)c2cc1OC + C=CC(=O)N1CCN(c2nc(OCC3CCCN3C)nc3c2CCN(c2cccc4cccc(C)c24)C3)CC1CC#N", "RELATION OPERATOR": "<", "IC50 (nM)": 31.6}
{"MOLECULE": "CC(C)NCC(C(=O)N1CCN(c2ncnc3c2C(C)CC3O)CC1)c1ccc(Cl)cc1 (stereo not given) + CC1OCC2(CCN(c3cnc(Sc4ccnc(N)c4Cl)c(N)n3)CC2)C1N", "RELATION OPERATOR": "=", "IC50 (nM)": 134}
{"MOLECULE": "CCNC(=O)CC1N=C(c2ccc(Cl)cc2)c2cc(OC)ccc2-n2c(C)nnc21 (stereo not given) + CC1OCC2(CCN(c3cnc(Sc4ccnc(N)c4Cl)c(N)n3)CC2)C1N", "RELATION OPERATOR": "=", "IC50 (nM)": 155}

----------
System: KRAS-mutant PDC complex spheroid viability
METHOD NOTES: Anticancer human tumor 186277-243-T-J2-PDC cell line growth inhibition [KRAS2];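 as to viability, T/C: viability read after seven days of compound exposure; 100% = DMSO vehicle-treated spheroids so lower means less viable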
EXPERIMENTAL CONTEXT: second compound 0.316 µM; first compound 0.000316 µM; stronger effect = lower value
MEASURE: viability, T/C (%)

{"COMPOUND": "Cn1ncnc1[C@H]1c2n[nH]c(=O)c3cc(F)cc(c23)N[C@@H]1c1ccc(F)cc1 + COc1cc2nc(C)nc(NC(C)c3cc(N)cc(C(F)(F)F)c3)c2cc1OC1CCOC1", "MEASURE": "viability, T/C", "MEASUREMENT": 108}
{"COMPOUND": "CC(=O)Nc1cccc(-n2c(=O)n(C3CC3)c(=O)c3c(Nc4ccc(I)cc4F)n(C)c(=O)c(C)c32)c1 + CNCc1ccccc1-c1csc(C(C)Nc2nc(C)nc3cc(OC)c(OC)cc23)c1", "MEASURE": "viability, T/C", "MEASUREMENT": 47.9}
{"COMPOUND": "Cn1ncnc1[C@H]1c2n[nH]c(=O)c3cc(F)cc(c23)N[C@@H]1c1ccc(F)cc1 + C=CC(=O)N1CCN(c2nc(=O)n(-c3c(C)ccnc3C(C)C)c3nc(-c4c(O)cccc4F)c(F)cc23)C(C)C1", "MEASURE": "viability, T/C", "MEASUREMENT": 106}
{"COMPOUND": "CN(C)C/C=C/C(=O)Nc1cc2c(Nc3ccc(F)c(Cl)c3)ncnc2cc1O[C@H]1CCOC1 + C=CC(=O)N1CCN(c2nc(OCC3CCCN3C)nc3c2CCN(c2cccc4cccc(C)c24)C3)CC1CC#N", "MEASURE": "viability, T/C", "MEASUREMENT": 102}
{"COMPOUND": "CC(C)n1nc(-c2ccc3oc(N)nc3c2)c2c(N)ncnc21 + CNCc1ccccc1-c1csc(C(C)Nc2nc(C)nc3cc(OC)c(OC)cc23)c1", "MEASURE": "viability, T/C", "MEASUREMENT": 98.8}
{"COMPOUND": "CN(C)C/C=C/C(=O)Nc1cc2c(Nc3ccc(F)c(Cl)c3)ncnc2cc1O[C@H]1CCOC1 + CC1OCC2(CCN(c3cnc(Sc4ccnc(N)c4Cl)c(N)n3)CC2)C1N", "MEASURE": "viability, T/C", "MEASUREMENT": 103}
{"COMPOUND": "CN(C)C/C=C/C(=O)Nc1cc2c(Nc3ccc(F)c(Cl)c3)ncnc2cc1O[C@H]1CCOC1 + COc1cc2nc(C)nc(NC(C)c3cc(N)cc(C(F)(F)F)c3)c2cc1OC1CCOC1", "MEASURE": "viability, T/C", "MEASUREMENT": 94.3}
{"COMPOUND": "CC(=O)Nc1cccc(-n2c(=O)n(C3CC3)c(=O)c3c(Nc4ccc(I)cc4F)n(C)c(=O)c(C)c32)c1 + COc1cc2nc(C)nc(NC(C)c3cc(N)cc(C(F)(F)F)c3)c2cc1OC1CCOC1", "MEASURE": "viability, T/C", "MEASUREMENT": 53}
{"COMPOUND": "CC(C)n1nc(-c2ccc3oc(N)nc3c2)c2c(N)ncnc21 + C=CC(=O)N1CCN(c2nc(=O)n(-c3c(C)ccnc3C(C)C)c3nc(-c4c(O)cccc4F)c(F)cc23)C(C)C1", "MEASURE": "viability, T/C", "MEASUREMENT": 113}
{"COMPOUND": "CC(=O)Nc1cccc(-n2c(=O)n(C3CC3)c(=O)c3c(Nc4ccc(I)cc4F)n(C)c(=O)c(C)c32)c1 + CC1OCC2(CCN(c3cnc(Sc4ccnc(N)c4Cl)c(N)n3)CC2)C1N", "MEASURE": "viability, T/C", "MEASUREMENT": 25.9}

----------
Test system: KRAS-mutant PDC complex spheroid viability
METHOD NOTES: Anticancer human tumor 186277-243-T-J2-PDC cell line growth inhibition [KRAS2];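 as to viability, T/C: viability read after seven days of compound exposure; 100% = DMSO vehicle-treated spheroids so lower means less viable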
EXPERIMENTAL CONTEXT: second compound 3.16 µM; first compound 1 µM; stronger effect = lower value

{"COMPOUND": "COc1cc2nccc(Oc3ccc(NC(=O)C4(C(=O)Nc5ccc(F)cc5)CC4)cc3)c2cc1OC + C=CC(=O)N1CCN(c2nc(=O)n(-c3c(C)ccnc3C(C)C)c3nc(-c4c(O)cccc4F)c(F)cc23)C(C)C1", "viability, T/C (%)": 41.8}
{"COMPOUND": "CCN1CCN(Cc2ccc(Nc3ncc(F)c(-c4cc(F)c5nc(C)n(C(C)C)c5c4)n3)nc2)CC1 + CNCc1ccccc1-c1csc(C(C)Nc2nc(C)nc3cc(OC)c(OC)cc23)c1", "viability, T/C (%)": 0.14}
{"COMPOUND": "CCNC(=O)CC1N=C(c2ccc(Cl)cc2)c2cc(OC)ccc2-n2c(C)nnc21 (stereo unspecified) + CNCc1ccccc1-c1csc(C(C)Nc2nc(C)nc3cc(OC)c(OC)cc23)c1", "viability, T/C (%)": 1.92}
{"COMPOUND": "Cn1nccc1Nc1nccc(-c2cc3c(s2)C(C)(C)N(CCN2CCOCC2)C3=O)n1 + C=CC(=O)N1CCN(c2nc(=O)n(-c3c(C)ccnc3C(C)C)c3nc(-c4c(O)cccc4F)c(F)cc23)C(C)C1", "viability, T/C (%)": 9.35}
{"COMPOUND": "COC(=O)c1ccc2c(C(=Nc3ccc(N(C)C(=O)CN4CCN(C)CC4)cc3)c3ccccc3)c(O)[nH]c2c1 + C=CC(=O)N1CCN(c2nc(OCC3CCCN3C)nc3c2CCN(c2cccc4cccc(C)c24)C3)CC1CC#N", "viability, T/C (%)": 0.11}
{"COMPOUND": "CC1(C)CCC(CN2CCN(c3ccc(C(=O)NS(=O)(=O)c4ccc(NCC5CCOCC5)c([N+](=O)[O-])c4)c(Oc4cnc5[nH]ccc5c4)c3)CC2)=C(c2ccc(Cl)cc2)C1 + C=CC(=O)N1CCN(c2nc(=O)n(-c3c(C)ccnc3C(C)C)c3nc(-c4c(O)cccc4F)c(F)cc23)C(C)C1", "viability, T/C (%)": 85}
{"COMPOUND": "Cn1nccc1Nc1nccc(-c2cc3c(s2)C(C)(C)N(CCN2CCOCC2)C3=O)n1 + COc1cc2nc(C)nc(NC(C)c3cc(N)cc(C(F)(F)F)c3)c2cc1OC1CCOC1", "viability, T/C (%)": 7.66}
{"COMPOUND": "CC1OCC2(CCN(c3cnc(Sc4ccnc(N)c4Cl)c(N)n3)CC2)C1N (stereo unspecified) + COc1cc2nc(C)nc(NC(C)c3cc(N)cc(C(F)(F)F)c3)c2cc1OC1CCOC1", "viability, T/C (%)": 114}
{"COMPOUND": "Cn1nccc1Nc1nccc(-c2cc3c(s2)C(C)(C)N(CCN2CCOCC2)C3=O)n1 + CNCc1ccccc1-c1csc(C(C)Nc2nc(C)nc3cc(OC)c(OC)cc23)c1", "viability, T/C (%)": 1.86}
{"COMPOUND": "CCN1CCN(Cc2ccc(Nc3ncc(F)c(-c4cc(F)c5nc(C)n(C(C)C)c5c4)n3)nc2)CC1 + CC1OCC2(CCN(c3cnc(Sc4ccnc(N)c4Cl)c(N)n3)CC2)C1N", "viability, T/C (%)": 8.29}
{"COMPOUND": "CC1COCCN1c1cc(-c2ccnn2C)c2ccnc(-c3ccn[nH]3)c2n1 (stereo unspecified) + CC1OCC2(CCN(c3cnc(Sc4ccnc(N)c4Cl)c(N)n3)CC2)C1N", "viability, T/C (%)": 1.9}
{"COMPOUND": "CC1(C)CCC(CN2CCN(c3ccc(C(=O)NS(=O)(=O)c4ccc(NCC5CCOCC5)c([N+](=O)[O-])c4)c(Oc4cnc5[nH]ccc5c4)c3)CC2)=C(c2ccc(Cl)cc2)C1 + C=CC(=O)N1CCN(c2nc(OCC3CCCN3C)nc3c2CCN(c2cccc4cccc(C)c24)C3)CC1CC#N", "viability, T/C (%)": 0.18}
{"COMPOUND": "CC1COCCN1c1cc(-c2ccnn2C)c2ccnc(-c3ccn[nH]3)c2n1 (stereo unspecified) + C=CC(=O)N1CCN(c2nc(=O)n(-c3c(C)ccnc3C(C)C)c3nc(-c4c(O)cccc4F)c(F)cc23)C(C)C1", "viability, T/C (%)": 6.25}
{"COMPOUND": "CC1OCC2(CCN(c3cnc(Sc4ccnc(N)c4Cl)c(N)n3)CC2)C1N (stereo unspecified) + CNCc1ccccc1-c1csc(C(C)Nc2nc(C)nc3cc(OC)c(OC)cc23)c1", "viability, T/C (%)": 71.4}
{"COMPOUND": "CC1COCCN1c1cc(-c2ccnn2C)c2ccnc(-c3ccn[nH]3)c2n1 (stereo unspecified) + CNCc1ccccc1-c1csc(C(C)Nc2nc(C)nc3cc(OC)c(OC)cc23)c1", "viability, T/C (%)": 0.22}
{"COMPOUND": "COc1cc(Nc2ncc3c(n2)-c2ccc(Cl)cc2C(c2c(F)cccc2OC)=NC3)ccc1C(=O)O + C=CC(=O)N1CCN(c2nc(=O)n(-c3c(C)ccnc3C(C)C)c3nc(-c4c(O)cccc4F)c(F)cc23)C(C)C1", "viability, T/C (%)": 36.9}
{"COMPOUND": "COc1cc2nccc(Oc3ccc(NC(=O)C4(C(=O)Nc5ccc(F)cc5)CC4)cc3)c2cc1OC + COc1cc2nc(C)nc(NC(C)c3cc(N)cc(C(F)(F)F)c3)c2cc1OC1CCOC1", "viability, T/C (%)": 9.28}
{"COMPOUND": "CC(C)NCC(C(=O)N1CCN(c2ncnc3c2C(C)CC3O)CC1)c1ccc(Cl)cc1 (stereo unspecified) + CC1OCC2(CCN(c3cnc(Sc4ccnc(N)c4Cl)c(N)n3)CC2)C1N", "viability, T/C (%)": 8.57}
{"COMPOUND": "O=C(c1cc(Cc2n[nH]c(=O)c3ccccc23)ccc1F)N1CCN(C(=O)C2CC2)CC1 + CC1OCC2(CCN(c3cnc(Sc4ccnc(N)c4Cl)c(N)n3)CC2)C1N", "viability, T/C (%)": 70.3}
{"COMPOUND": "COc1cc2nccc(Oc3ccc(NC(=O)C4(C(=O)Nc5ccc(F)cc5)CC4)cc3)c2cc1OC + CNCc1ccccc1-c1csc(C(C)Nc2nc(C)nc3cc(OC)c(OC)cc23)c1", "viability, T/C (%)": 0.18}
{"COMPOUND": "COc1cc(Nc2ncc3c(n2)-c2ccc(Cl)cc2C(c2c(F)cccc2OC)=NC3)ccc1C(=O)O + COc1cc2nc(C)nc(NC(C)c3cc(N)cc(C(F)(F)F)c3)c2cc1OC1CCOC1", "viability, T/C (%)": 20.6}
